Data origin: patent US6914045B2

Can you tell me MIC Enterococcus faecalis (GC 4554) for the items I'm about to list?
Test system: Enterococcus sp.
Test: in vitro antibacterial evaluation, MIC by broth dilution
Type: cell-based
Conditions: strain GC 4554; broth dilution, 18 hours at 35° C.
One number for each entry, in µg/mL.

For orientation, consider the following solved cases.
[[record]]
compound = "CC(c1ccccc1)C1NC(=O)CNC(=O)C(CO)NC(=O)C(C(O)C2CNC(=N)N2C2OC(CO)C(O)C(O)C2O)NC(=O)C(C(O)C2CNC(=N)N2)NC(=O)C(Cc2ccc(OC3OC(CO)C(OC4OC5COC(c6cccc(-c7ccccc7)c6)OC5C(O)C4O)C(O)C3O)cc2)NC1=O (centres unmarked)"
recorded_result = 2

[[record]]
compound = "COc1ccc(Oc2cccc(C3OCC4OC(OC5C(CO)OC(Oc6ccc(CC7NC(=O)C(C(C)c8ccccc8)NC(=O)CNC(=O)C(CO)NC(=O)C(C(O)C8CNC(=N)N8C8OC(CO)C(O)C(O)C8O)NC(=O)C(C(O)C8CNC(=N)N8)NC7=O)cc6)C(O)C5O)C(O)C(O)C4O3)c2)cc1 (centres unmarked)"
recorded_result = 2

[[record]]
compound = "COc1cc(C2OCC3OC(OC4C(CO)OC(Oc5ccc(CC6NC(=O)C(C(C)c7ccccc7)NC(=O)CNC(=O)C(CO)NC(=O)C(C(O)C7CNC(=N)N7C7OC(CO)C(O)C(O)C7O)NC(=O)C(C(O)C7CNC(=N)N7)NC6=O)cc5)C(O)C4O)C(O)C(O)C3O2)ccc1[N+](=O)[O-] (centres unmarked)"
recorded_result = 8

[[record]]
compound = "CC(c1ccccc1)C1NC(=O)CNC(=O)C(CO)NC(=O)C(C(O)C2CNC(=N)N2C2OC(CO)C(O)C(O)C2O)NC(=O)C(C(O)C2CNC(=N)N2)NC(=O)C(Cc2ccc3oc(-c4ccc(N(C)C)cc4)nc3c2)NC1=O (centres unmarked)"
recorded_result = 32


Hi there! I need MIC Enterococcus faecalis (GC 4554) for each item below, if you can.
1. CC(c1ccccc1)C1NC(=O)CNC(=O)C(CO)NC(=O)C(C(O)C2CNC(=N)N2C2OC(CO)C(O)C(O)C2O)NC(=O)C(C(O)C2CNC(=N)N2)NC(=O)C(Cc2ccc(OC3OC(CO)C(OC4OC5COC(c6ccc(Oc7ccc(C(C)(C)C)cc7)cc6)OC5C(O)C4O)C(O)C3O)cc2)NC1=O (centres unmarked)
2. CC(c1ccccc1)C1NC(=O)CNC(=O)C(CO)NC(=O)C(C(O)C2CNC(=N)N2C2OC(CO)C(O)C(O)C2O)NC(=O)C(C(O)C2CNC(=N)N2)NC(=O)C(Cc2ccc3oc(C=C(c4ccccc4)c4ccccc4)nc3c2)NC1=O (centres unmarked)

Key:
2
32

###

Tested on: Enterococcus sp.
Assay: in vitro antibacterial evaluation, MIC by broth dilution
Type: cell-based
Settings: broth dilution, inoculum 5×10^5 CFU/mL, 18 hours at 35° C.; strain GC 2243
Consider the following molecules; for each one, report its MIC Enterococcus faecium (GC 2243).
Answers are plain numbers, in µg/mL.

[[record]]
molecule = "CC(c1ccccc1)C1NC(=O)CNC(=O)C(CO)NC(=O)C(C(O)C2CNC(=N)N2C2OC(CO)C(O)C(O)C2O)NC(=O)C(C(O)C2CNC(=N)N2)NC(=O)C(Cc2ccc(OC3OC(CO)C(OC4OC5COC(c6ccc(C(=O)c7ccc(I)cc7)cc6)OC5C(O)C4O)C(O)C3O)cc2)NC1=O (stereo not drawn)"
recorded_result = 2


Look at each molecule and report its MIC Enterococcus faecium (GC 2243).
1. CCOc1cc(C2OCC3OC(OC4C(CO)OC(Oc5ccc(CC6NC(=O)C(C(C)c7ccccc7)NC(=O)CNC(=O)C(CO)NC(=O)C(C(O)C7CNC(=N)N7C7OC(CO)C(O)C(O)C7O)NC(=O)C(C(O)C7CNC(=N)N7)NC6=O)cc5)C(O)C4O)C(O)C(O)C3O2)ccc1[N+](=O)[O-] (stereo not drawn)
2. N=C1NCC(C(O)C2NC(=O)C(Cc3ccc(OC4OC(CO)C(OC5OC6COC(CCc7ccccc7)OC6C(O)C5O)C(O)C4O)cc3)NC(=O)C(CC3CCCCC3)NC(=O)CNC(=O)C(CO)NC(=O)C(C(O)C3CNC(=N)N3C3OC(CO)C(O)C(O)C3O)NC2=O)N1 (stereo not drawn)

Key:
[32, 1]

Look at each molecule and report its MIC Enterococcus faecium (GC 2243).
1. CC(c1ccccc1)C1NC(=O)CNC(=O)C(CO)NC(=O)C(C(O)C2CNC(=N)N2C2OC(CO)C(O)C(O)C2O)NC(=O)C(C(O)C2CNC(=N)N2)NC(=O)C(Cc2ccc(OC3OC(CO)C(OC4OC5COC(c6ccc(-c7cccs7)cc6)OC5C(O)C4O)C(O)C3O)cc2)NC1=O (stereo not drawn)
2. CC(c1ccccc1)C1NC(=O)CNC(=O)C(CO)NC(=O)C(C(O)C2CNC(=N)N2C2OC(CO)C(O)C(O)C2O)NC(=O)C(C(O)C2CNC(=N)N2)NC(=O)C(Cc2ccc(OC3OC(CO)C(OC4OC5COC(c6ccc(S(C)(=O)=O)cc6)OC5C(O)C4O)C(O)C3O)cc2)NC1=O (stereo not drawn)

Key:
1. 8
2. 64

Fill in MIC Enterococcus faecium (GC 2243) for each of the 2 molecules listed.
1. CC(C)=CCCC(C)=CCOc1ccc(C2OCC3OC(OC4C(CO)OC(Oc5ccc(CC6NC(=O)C(C(C)c7ccccc7)NC(=O)CNC(=O)C(CO)NC(=O)C(C(O)C7CNC(=N)N7C7OC(CO)C(O)C(O)C7O)NC(=O)C(C(O)C7CNC(=N)N7)NC6=O)cc5)C(O)C4O)C(O)C(O)C3O2)cc1 (stereo not drawn)
2. CC(C)=CCN1CC(C(O)C2NC(=O)C(C(O)C3CNC(=N)N3)NC(=O)C(Cc3ccc(OC4OC(CO)C(OC5OC6COC7(OC6C(O)C5O)C5CC6CC(C5)CC7C6)C(O)C4O)cc3)NC(=O)C(C(C)c3ccccc3)NC(=O)CNC(=O)C(CO)NC2=O)N(C2OC(CO)C(O)C(O)C2O)C1=N (stereo not drawn)

Key:
1. 2
2. 4

###

Tested on: Enterococcus sp.
Experiment: in vitro antibacterial evaluation, MIC by broth dilution
Assay type: cell-based
Settings: Enterococcus faecalis (GC 2691); broth dilution, 18 hours at 35° C.
Can you tell me MIC Enterococcus faecalis (GC 2691) for the items I'm about to list?
Numbers only, in µg/mL.

Examples from the recorded data:
[[record]]
compound = "CCCCOC(=O)CCC1OCC2OC(OC3C(CO)OC(Oc4ccc(CC5NC(=O)C(C(C)c6ccccc6)NC(=O)CNC(=O)C(CO)NC(=O)C(C(O)C6CNC(=N)N6C6OC(CO)C(O)C(O)C6O)NC(=O)C(C(O)C6CNC(=N)N6)NC5=O)cc4)C(O)C3O)C(O)C(O)C2O1 (stereo not shown)"
recorded_result = 4

[[record]]
compound = "CC(c1ccccc1)C1NC(=O)CNC(=O)C(CO)NC(=O)C(C(O)C2CNC(=N)N2C2OC(CO)C(O)C(O)C2O)NC(=O)C(C(O)C2CNC(=N)N2)NC(=O)C(Cc2ccc(OC3OC(CO)C(OC4OC5COC(CC67CC8CC(CC(C8)C6)C7)OC5C(O)C4O)C(O)C3O)cc2)NC1=O (stereo not shown)"
recorded_result = 2


Exercise: Name the reported MIC Enterococcus faecalis (GC 2691) value associated with the compound CC(c1ccccc1)C1NC(=O)CNC(=O)C(CO)NC(=O)C(C(O)C2CNC(=N)N2C2OC(CO)C(O)C(O)C2O)NC(=O)C(C(O)C2CNC(=N)N2)NC(=O)C(Cc2ccc(OC3OC(CO)C(OC4OC5COC(CCc6ccccc6)OC5C(O)C4O)C(O)C3O)cc2)NC1=O (stereo not shown)
Key: 4

###

System: Staphylococcus sp.
Assay: in vitro antibacterial evaluation, MIC by broth dilution
Type: cell-based
Conditions: strain GC 3053; broth dilution, 18 hours at 35° C.
recorded_metric: MIC Staphylococcus aureus (GC 3053) (µg/mL)
One number for each entry, in µg/mL.

[[record]]
compound = "CC(c1ccccc1)C1NC(=O)CNC(=O)C(CO)NC(=O)C(C(O)C2CNC(=N)N2C2OC(CO)C(O)C(O)C2O)NC(=O)C(C(O)C2CNC(=N)N2)NC(=O)C(Cc2ccc3oc(-c4ccoc4)nc3c2)NC1=O (stereo not drawn)"
system_name = "Staphylococcus sp."
recorded_result = 64

[[record]]
compound = "Cc1ccc(Oc2cccc(C3OCC4OC(OC5C(CO)OC(Oc6ccc(CC7NC(=O)C(C(C)c8ccccc8)NC(=O)CNC(=O)C(CO)NC(=O)C(C(O)C8CNC(=N)N8C8OC(CO)C(O)C(O)C8O)NC(=O)C(C(O)C8CNC(=N)N8)NC7=O)cc6I)C(O)C5O)C(O)C(O)C4O3)c2)cc1 (stereo not drawn)"
system_name = "Staphylococcus sp."
recorded_result = 64

[[record]]
compound = "COc1ccc(Oc2cccc(-c3nc4cc(CC5NC(=O)C(C(C)c6ccccc6)NC(=O)CNC(=O)C(CO)NC(=O)C(C(O)C6CNC(=N)N6C6OC(CO)C(O)C(O)C6O)NC(=O)C(C(O)C6CNC(=N)N6)NC5=O)ccc4o3)c2)cc1 (stereo not drawn)"
system_name = "Staphylococcus sp."
recorded_result = 8

[[record]]
compound = "CC(c1ccccc1)C1NC(=O)CNC(=O)C(CO)NC(=O)C(C(O)C2CNC(=N)N2C2OC(CO)C(O)C(O)C2O)NC(=O)C(C(O)C2CNC(=N)N2)NC(=O)C(Cc2ccc3oc(-c4ccc(Br)cc4)nc3c2)NC1=O (stereo not drawn)"
system_name = "Staphylococcus sp."
recorded_result = 8

[[record]]
compound = "CCCCCCC(=O)Nc1cc(CC2NC(=O)C(C(C)c3ccccc3)NC(=O)CNC(=O)C(CO)NC(=O)C(C(O)C3CNC(=N)N3C3OC(CO)C(O)C(O)C3O)NC(=O)C(C(O)C3CNC(=N)N3)NC2=O)ccc1O (stereo not drawn)"
system_name = "Staphylococcus sp."
recorded_result = 128


Would you kindly look at the next entry?
Exercise: MIC Staphylococcus aureus (GC 3053) of CC(c1ccccc1)C1NC(=O)CNC(=O)C(CO)NC(=O)C(C(O)C2CNC(=N)N2C2OC(CO)C(O)C(O)C2O)NC(=O)C(C(O)C2CNC(=N)N2)NC(=O)C(Cc2ccc3oc(-c4ccc(OCc5ccccc5)cc4)nc3c2)NC1=O (stereo not drawn) on Staphylococcus sp.?
Key: 16
